# METHOD_DESCRIPTION: endothelial E-selectin expression blockers – imaging, HUVEC, immunofluorescence, MLSMR starter and 10KST1 sets, primary screen (AID 487);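 note: signal is fraction of cell area covered by stained E-selectin grains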
# ASSAY_CONTEXT: HUVEC TNFalpha-induced E-selectin immunofluorescence imaging, at 2 µM; hits give high values
Collected inhibition values appear next to each entry.
READOUT: inhibition (%)

>  <MOLECULE>
CCOc1ccc(S(=O)(=O)Nc2ccccc2C(=O)Nc2ccccc2N2CCOCC2)cc1

>  <VALUE_UNITS>
%

>  <NUMBER>
-24.9

$$$$
>  <MOLECULE>
CCSc1nnc(NC(=O)c2ccc(C)o2)s1

>  <VALUE_UNITS>
%

>  <NUMBER>
11.4

$$$$
>  <MOLECULE>
CCOC(=O)c1[nH]c2ccc(F)cc2c1NC(=O)C(C)N1CCc2cc(OC)c(OC)cc2C1 (stereo not drawn)

>  <VALUE_UNITS>
%

>  <NUMBER>
42.5

$$$$
>  <MOLECULE>
CCCn1nnnc1SCC(=O)c1ccc2c(c1)OCCO2

>  <VALUE_UNITS>
%

>  <NUMBER>
34

$$$$
>  <MOLECULE>
COc1cccc(Oc2ccc(N)cc2)c1

>  <VALUE_UNITS>
%

>  <NUMBER>
-54.1

$$$$
>  <MOLECULE>
COC(=O)c1ccc(CSc2nc3ccccc3c(=O)n2Cc2ccco2)o1

>  <VALUE_UNITS>
%

>  <NUMBER>
1.8

$$$$
>  <MOLECULE>
COc1ccc(C2C(C(C)=O)=C(C)N=c3s/c(=C\c4ccc5c(c4)OCO5)c(=O)n32)c(OC)c1 (stereo not drawn)

>  <VALUE_UNITS>
%

>  <NUMBER>
3.3

$$$$
>  <MOLECULE>
O=C(COC(=O)C1(c2ccccc2F)CCCC1)NC1CCS(=O)(=O)C1 (stereo not drawn)

>  <VALUE_UNITS>
%

>  <NUMBER>
-14.4

$$$$
>  <MOLECULE>
CCOC(=O)CSc1nc(C)c(C(=O)OCC)s1

>  <VALUE_UNITS>
%

>  <NUMBER>
-18.1

$$$$
>  <MOLECULE>
COCCn1c(SCC(=O)Nc2nnc(C)s2)nnc1-c1ccncc1

>  <VALUE_UNITS>
%

>  <NUMBER>
-32.1

$$$$
>  <MOLECULE>
CCC1CCCCN1S(=O)(=O)c1ccc(C(=O)Nc2nnc(-c3cccs3)o2)cc1 (stereo not drawn)

>  <VALUE_UNITS>
%

>  <NUMBER>
-211

$$$$
>  <MOLECULE>
Cc1cc(NC(=O)CN2CCC(O)(c3cccc(F)c3)CC2)no1

>  <VALUE_UNITS>
%

>  <NUMBER>
-107

$$$$
>  <MOLECULE>
O=C(COc1ccccc1Cl)N1CCCC1

>  <VALUE_UNITS>
%

>  <NUMBER>
-66.3

$$$$
>  <MOLECULE>
COc1ccc(C(=O)N2CCCC(c3ccccc3)C2)cc1 (stereo not drawn)

>  <VALUE_UNITS>
%

>  <NUMBER>
-91.1

$$$$
>  <MOLECULE>
O=C(Nc1ccc(CN2CCCCC2)cc1)c1ccc2c(c1)OCO2

>  <VALUE_UNITS>
%

>  <NUMBER>
-0.6

$$$$
>  <MOLECULE>
CCCn1c(=N)n(CCOc2ccc(OC)cc2)c2ccccc21

>  <VALUE_UNITS>
%

>  <NUMBER>
15.1

$$$$
>  <MOLECULE>
CC(C)Cn1c(=O)c(C(=O)NCc2ccccn2)c(O)c2ccccc21

>  <VALUE_UNITS>
%

>  <NUMBER>
-24

$$$$
>  <MOLECULE>
COC(=O)c1[nH]c2ccccc2c1NC(=O)CN1CCC(C(N)=O)(N2CCCCC2)CC1

>  <VALUE_UNITS>
%

>  <NUMBER>
-114

$$$$

====

# METHOD_DESCRIPTION: inhibitors of TNFa-induced NFkB p65 translocation, primary screen, imaging, HUVEC, MLSMR starter and 10KST1 sets (AID 438);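 note: compound added about 3h40 before a 20 min TNFalpha stimulation; signal is the nuclear over cytoplasmic p65 intensity ratio per well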
# ASSAY_CONTEXT: HUVEC TNFa-induced p65 nuclear translocation; at 2 µM, hits give high values, 0% TNFa-plus-vehicle, 100% no-TNFa wells

>  <MOLECULE>
COc1ccc(-c2[nH]nc3c2C(c2ccccc2OC(=O)N2CCOCC2)C(C#N)=C(N)O3)cc1 (stereo not drawn)

>  <VALUE_UNITS>
%

>  <inhibition>
-15.1

$$$$
>  <MOLECULE>
COc1ccc(C(=O)NCCn2ccc3ccccc32)cc1

>  <VALUE_UNITS>
%

>  <inhibition>
7.3

$$$$
>  <MOLECULE>
CC1CCc2nc(NC(=O)CN3CCN(Cc4ccc5c(c4)OCO5)CC3)sc2C1 (stereo not drawn)

>  <VALUE_UNITS>
%

>  <inhibition>
-9.3

$$$$
>  <MOLECULE>
CC(=O)c1c(C)[nH]c(C(=O)NCc2cccs2)c1C

>  <VALUE_UNITS>
%

>  <inhibition>
2.9

$$$$
>  <MOLECULE>
COC(=O)c1[nH]c2cccc(C)c2c1NC(=O)CN1CCCc2ccccc21

>  <VALUE_UNITS>
%

>  <inhibition>
6.2

$$$$
>  <MOLECULE>
Cn1c(=O)c2c(nc(N3CCCCC3)n2CCSc2nc3ccccc3o2)n(C)c1=O

>  <VALUE_UNITS>
%

>  <inhibition>
-3.6

$$$$
>  <MOLECULE>
CCOC(=O)N1CCN(CC(=O)Nc2c(C(=O)OC)[nH]c3cccc(Cl)c23)CC1

>  <VALUE_UNITS>
%

>  <inhibition>
-15.5

$$$$
>  <MOLECULE>
CCOC(=O)c1cc2oc(C)cc2n1CC(=O)OC1CCCCC1

>  <VALUE_UNITS>
%

>  <inhibition>
5.3

$$$$
>  <MOLECULE>
O=C(NCCN1CCN(c2ccccc2)CC1)c1ccc(NC(=O)C2CCCO2)cc1 (stereo not drawn)

>  <VALUE_UNITS>
%

>  <inhibition>
-21.6

$$$$
>  <MOLECULE>
CCOc1ccc(CCNC(=O)CCc2nc(-c3ccc(OC)cc3)no2)cc1OCC

>  <VALUE_UNITS>
%

>  <inhibition>
-3.5

$$$$
>  <MOLECULE>
COC(=O)C(C)Oc1ccc2c3c(c(=O)oc2c1)CCCCC3 (stereo not drawn)

>  <VALUE_UNITS>
%

>  <inhibition>
-7.8

$$$$
>  <MOLECULE>
CCCCC(=NCCO)C1=C(O)C(C(=O)OC)C(C)(C)CC1=O (stereo not drawn)

>  <VALUE_UNITS>
%

>  <inhibition>
1.8

$$$$
>  <MOLECULE>
Cc1ccc(C)c(N2CCN(C(=O)C3CCN(S(=O)(=O)c4c(C)noc4C)CC3)CC2)c1

>  <VALUE_UNITS>
%

>  <inhibition>
-10.8

$$$$
>  <MOLECULE>
Cn1c(=O)c2c(nc(SCC(=O)NCc3ccc4c(c3)OCO4)n2Cc2ccccc2)n(C)c1=O

>  <VALUE_UNITS>
%

>  <inhibition>
-14.8

$$$$
>  <MOLECULE>
Cc1ccc(OCC(=O)N2CCN(C(=O)CCC3CCCC3)CC2)cc1

>  <VALUE_UNITS>
%

>  <inhibition>
0.5

$$$$
>  <MOLECULE>
CCCN1C(=O)SC(CC(=O)Nc2ccc(Br)cc2)C1=O (stereo not drawn)

>  <VALUE_UNITS>
%

>  <inhibition>
-7.8

$$$$
>  <MOLECULE>
O=C(c1ccc(Cl)cc1)N(Cc1cccs1)C1CCS(=O)(=O)C1 (stereo not drawn)

>  <VALUE_UNITS>
%

>  <inhibition>
0.4

$$$$
>  <MOLECULE>
CCN(CC)C(=O)c1ccc(NS(=O)(=O)c2ccccc2)cc1

>  <VALUE_UNITS>
%

>  <inhibition>
0.9

$$$$
>  <MOLECULE>
COc1ccc(N(CC(=O)NC2CCCC2)C(=O)Cn2nnc(-c3ccc(C)cc3)n2)cc1

>  <VALUE_UNITS>
%

>  <inhibition>
-3.9

$$$$
>  <MOLECULE>
COc1ccccc1S(=O)(=O)n1cc(Cc2ccccc2)c(N)n1

>  <VALUE_UNITS>
%

>  <inhibition>
-21.8

$$$$
>  <MOLECULE>
COc1ccc(-c2nnc3ccc(SC(C(C)=O)C(C)=O)nn23)cc1OC

>  <VALUE_UNITS>
%

>  <inhibition>
-17

$$$$
>  <MOLECULE>
O=C(Cc1c(O)c2ccccc2[nH]c1=O)NCc1ccc(F)cc1

>  <VALUE_UNITS>
%

>  <inhibition>
4.3

$$$$
>  <MOLECULE>
COc1cccc2cc(C(=O)N3CCN(C45CC6CC(CC(C6)C4)C5)CC3)c(=O)oc12

>  <VALUE_UNITS>
%

>  <inhibition>
9.1

$$$$
